Measured values drawn from paper PMC8954733 for this set.

System: B16F10 (mouse melanoma) cell line
Protocol details: MTT cytotoxicity assay, B16F10
Assay type: cell-based
Condition parameters: 24 h treatment, mean ± SD, read-out: Cytotoxic effect IC50, cell line B16F10
Kindly state IC50 for each of the entries shown.
Reply with a number, then the unit it belongs to.

[in] Item under review: C=CC(C)(C)c1cc(CCCc2cc(O[C@@H]3O[C@H](CO)[C@@H](O)[C@H](O)[C@H]3O)c(O)c(CC=C(C)C)c2CC=C(C)C)c(O[C@@H]2O[C@H](CO)[C@@H](O)[C@H](O)[C@H]2O)cc1O [Compound 7, kazinol C-2′,3″-di-O-β-D-glucopyranoside] . Reported IC50?
[out] 24.2 µM

[in] Please look up its IC50: O=c1[nH]cc(F)c(=O)[nH]1 [Compound 5-FU, 5-FU, reference compound]
[out] 4.61 µM

====

System: A375P (human melanoma) cell line
Protocol details: MTT cytotoxicity assay, A375P
Format: cell-based
Condition parameters: 24 h treatment, mean ± SD, read-out: Cytotoxic effect IC50, cell line A375P
Exercise: for every item that follows, state its recorded IC50.
Value and unit, in that order.

[in] # query: IC50 | item O=c1[nH]cc(F)c(=O)[nH]1 [Compound 5-FU, 5-FU, reference compound] | system: A375P (human melanoma) cell line
[out] 13.1 µM

[in] Return IC50 measured with A375P (human melanoma) cell line given this molecule: C=CC(C)(C)c1cc(CCCc2cc(O[C@@H]3O[C@H](CO)[C@@H](O)[C@H](O)[C@H]3O)c(O)c(CC=C(C)C)c2CC=C(C)C)c(O[C@@H]2O[C@H](CO)[C@@H](O)[C@H](O)[C@H]2O)cc1O [Compound 7, kazinol C-2′,3″-di-O-β-D-glucopyranoside]
[out] 23.6 µM

====

Field: IC50. Provide a value for each of the compounds that follow.
Assay target: mushroom tyrosinase
Protocol details: Mushroom tyrosinase inhibition (L-tyrosine substrate, dopachrome absorbance at 490 nm)
Condition parameters: L-tyrosine as substrate, 30 min at 37 °C, mean ± SD, read-out: Anti-Tyrosinase IC50
Protocol: All the compounds were investigated for their tyrosinase inhibitory effects using L-tyrosine as the substrate. […] After further incubation for 30 min under 37 °C, the absorbance of dopachrome produced in the mixture was determined at 490 nm with a microplate reader (SpectraMax 190; Molecular Devices, Sunnyvale, CA, USA). […] IC50 values were calculated from the mean values of data from four determinations.

[in] Look up IC50 for this compound: "CC(C)=CCc1c([C@H]2Oc3cc(O)cc(O)c3C(=O)[C@@H]2O)cc(O)c(O)c1CC=C(C)C"
[out] 24.1 µM

[in] I have this compound here, C=CC(C)(C)c1cc(CCCc2cc(O[C@@H]3O[C@H](CO)[C@@H](O)[C@H](O)[C@H]3O)c(O[C@@H]3O[C@H](CO)[C@@H](O)[C@H](O)[C@H]3O)c(CC=C(C)C)c2CC=C(C)C)c(O)cc1O [Compound 9, kazinol C-3″,4″-di-O-β-D-glucopyranoside] , and I need its recorded IC50.
[out] > 80 µM

[in] Which value of IC50 has been reported for C=CC(C)(C)c1cc(CCCc2cc(O[C@@H]3O[C@H](CO)[C@@H](O)[C@H](O)[C@H]3O)c(O)c(CC=C(C)C)c2CC=C(C)C)c(O[C@@H]2O[C@H](CO)[C@@H](O)[C@H](O)[C@H]2O)cc1O [Compound 7, kazinol C-2′,3″-di-O-β-D-glucopyranoside] in the records?
[out] > 80 µM

[in] Query (compound): C=CC(C)(C)c1cc(CCCc2cc(O[C@@H]3O[C@H](CO)[C@@H](O)[C@H](O)[C@H]3O)c(O)c(CC=C(C)C)c2CC=C(C)C)c(O)cc1O [Compound 6, Kazinol C-3″-O-β-D-glucopyranoside] ; field requested: IC50
[out] > 80 µM

[in] Given the compound "C=CC(C)(C)c1cc(CCCc2cc(O)c3c(c2CC=C(C)C)C[C@H](C(C)(C)OC)O3)c(O)cc1O" , what is its reported IC50?
[out] > 80 µM

[in] Return reported IC50; argument: "C=CC(C)(C)c1cc(CCCc2cc(O)c(O)c(CC=C(C)C)c2CC=C(C)C)c(O)cc1O"
[out] > 80 µM

[in] Can you share its IC50? I mean this compound: "CC(C)=CCc1c(CCCc2ccc(O)cc2O)cc(O)c(O)c1CC=C(C)C"
[out] 2.12 µM

[in] Consider the compound shown here: C=CC(C)(C)c1cc(CCCc2cc(O)c(O[C@@H]3O[C@H](CO)[C@@H](O)[C@H](O)[C@H]3O)c(CC=C(C)C)c2CC=C(C)C)c(O)cc1O [Compound 8, Kazinol C-4″-O-β-D-glucopyranoside] What is its recorded IC50?
[out] > 80 µM

[in] Can you share its IC50? I mean this compound: CC(C)=CCc1c(CCCc2ccc(O)cc2O)cc(O)c(O[C@@H]2O[C@H](CO)[C@@H](O)[C@H](O)[C@H]2O)c1CC=C(C)C [Compound 11, Kazinol F-4″-O-β-D-glucopyranoside]
[out] 0.71 µM

[in] What does the data say about its IC50? Entry: "C=CC(C)(C)c1cc2c(cc1O)O[C@H](c1cc(O)c(O)c(CC=C(C)C)c1CC=C(C)C)CC2"
[out] > 80 µM
